tested on: TDF; experiment: H1.0 immunofluorescence intensity relative to DMSO (% of DMSO); higher = stronger H1.0 induction, active = 120 or more; settings: concentration: 10 µM; 24 h;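 further: TDF is a line of transformed human dermal fibroblasts of mesenchymal origin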
PROPERTY MEASURED: H1.0 immunofluorescence intensity
Numbers only.

> print(dat)
                                   compound  quantitative.readout
1        O.O=P(O)(O)C(O)(Cn1ccnc1)P(=O)(O)O                  94.5
2  COc1ccccc1OCC(O)CN1CCN(CC(=O)Nc2c(C)cccc2C)CC1.Cl.Cl (centres undefined) [Ranolazine.2HCl]                  94.2
3  COC(=O)[C@@H](N)CSCC=C(C)CCC=C(C)CCC=C(C)C                  95.6

Okay, next one:
q: Please report the recorded H1.0 immunofluorescence intensity for "Cc1ncc(Cl)cc1NCc1ccc(C(=O)N[C@@H](CC2CCCC2)C(=O)NC2CC2)s1" .
a: 99.9

----------
system: TDF; test: H1.0 immunofluorescence intensity relative to DMSO (% of DMSO); higher = stronger H1.0 induction, active = 120 or more; conditions: concentration: 10 µM; 24 h;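 further: TDF is a line of transformed human dermal fibroblasts of mesenchymal origin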
PROPERTY MEASURED: H1.0 immunofluorescence intensity

MOLECULE	TARGET OR TEST SYSTEM	H1.0 immunofluorescence intensity
COC1C(OC(=O)C=CC=CC=CC=CC(=O)O)CCC2(CO2)C1C1(C)OC1CC=C(C)C (centres undefined)	TDF	98.9 (inactive)
Cc1ccc(C(=O)COC(=O)c2cccc(NC(=O)c3ccc([N+](=O)[O-])cc3[N+](=O)[O-])c2)cc1	TDF	110 (inactive)

The following molecules each have a reported value; give each one's H1.0 immunofluorescence intensity.
1. NC(C(=O)O)C1CC1C(=O)O (centres undefined)
2. Nc1nc(=O)n(C2CSC(CO)O2)cc1F (centres undefined)
3. CC(C)=CCC[C@@H](C)[C@H]1CC[C@H]2[C@@H]3CC=C4C[C@@H](O)CC[C@]4(C)[C@H]3CC[C@]12C
4. CC(C)C[C@@H](C(=O)O)c1cc(-c2ccc(C(F)(F)F)cc2)cc(-c2ccc(C(F)(F)F)cc2)c1
5. Cn1cc(C2=C(c3cn(CCCSC(=N)N)c4ccccc34)C(=O)NC2=O)c2ccccc21
6. N[C@H](C(=O)O)c1cccc(O)c1 [(S)-3-Hydroxyphenylglycine]
7. Cn1c(=O)c2[nH]cnc2n(C)c1=O [Aminophylline]
8. COc1cccc2c1C(=O)c1c(O)c3c(c(O)c1C2=O)CC(O)(C(C)=O)CC3OC1CC(N)C(O)C(C)O1 (centres undefined)

a:
1: 85.1 (inactive); 2: 96.1 (inactive); 3: 96 (inactive); 4: 93.7 (inactive); 5: 113 (inactive); 6: 102 (inactive); 7: 98.7 (inactive); 8: 134 (active)

The following molecules each have a reported value; give each one's H1.0 immunofluorescence intensity.
1. O=C(O)CCC(=O)N1CCC[C@H]1C(=O)O
2. CC(=O)Nc1nc(C)c(S(=O)(=O)Nc2ccc(C(O)(C(F)(F)F)C(F)(F)F)cc2)s1
3. Cc1nc2sccn2c(=O)c1CCN1CCC(=C(c2ccc(F)cc2)c2ccc(F)cc2)CC1
4. CCOC(=O)C=Cc1ccc(O)c(OC)c1
5. O=C(O)c1ccc(O)c(O)c1
6. CC12C=Cc3occc3C1CCC13CC(=O)C(CCC12)C3 (centres undefined)
7. CCCCCCCC/C=C\CCCCCCCC(=O)NCC(=O)O [[(9Z)-9-octadecenoylamino]acetic acid]
8. COc1cc2ncnc(Nc3ccc(O)c(Br)c3)c2cc1OC

a:
1: 102 (inactive); 2: 85.1 (inactive); 3: 88.8 (inactive); 4: 90.2 (inactive); 5: 91.4 (inactive); 6: 91.4 (inactive); 7: 96.9 (inactive); 8: 83.8 (inactive)

The following molecules each have a reported value; give each one's H1.0 immunofluorescence intensity.
1. CN(C)C1C(=O)C(C(N)=O)=C(O)C2(O)C(=O)C3=C(O)c4c(O)ccc(Cl)c4C(O)C3CC12.Cl (centres undefined) [Demeclocycline hydrochloride]
2. O=c1[nH]ccc2c(O)cccc12
3. Nc1ccn(C2CCC(CO)O2)c(=O)n1 (centres undefined) ["2',3' - Dideoxycytidine"]

a:
1. 99.7 (inactive)
2. 87.9 (inactive)
3. 100 (inactive)
